tested on: CP269; assay: qHTS profiling for inhibitors of Plasmodium falciparum proliferation (AID 504749);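 further: 0% = DMSO vehicle and full inhibition = artemisinin control; nearly all actives have a fitted effect of over 60% in size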; conditions: P. falciparum in erythrocytes, SYBR Green DNA, 72 h; series mostly up to 12.8 µM
Results filed as inconclusive are left out. Active and inactive are the calls of the source. The call rests on the fitted dose curve; in most records, active means well fitted inhibition curve with a large enough effect; inconclusive means small, poorly fitted or top-dose-only effect; inactive means flat fitted curve, though single readings scatter.

compound	outcome
Cc1onc(-c2ccccc2Cl)c1C(=O)N[C@H]1C(=O)N2[C@H]1SC(C)(C)[C@H]2C(=O)O	inactive
Cc1ccc(S(=O)(=O)NC(=O)NN2C[C@H]3CCC[C@@H]3C2)cc1	inactive
CC(=O)OCC(=O)[C@@]1(O)[C@H](C)C[C@@H]2[C@H]3CCC4=CC(=O)C=C[C@]4(C)[C@]3(F)[C@@H](O)C[C@@]21C	inactive
NC(=O)N[C@H]1NC(=O)NC1=O	inactive
C[C@]1(c2ccccc2)OC(C(=O)O)=CC1=O	inactive
Nc1nc2ncc(CNc3ccc(C(=O)NC(CCC(=O)O)C(=O)O)cc3)nc2c(=O)[nH]1 (centres undefined)	inactive
CCCCC[C@H](O)/C=C\[C@@H]1[C@H](O)CC(=O)[C@@H]1CCCCCCC(=O)O	inactive
CC[C@@]12CCCN3CCc4c(n(c5ccccc45)[C@](O)(C(=O)OC)C1)C32 (some centres undefined)	inactive
CC1C2CCC3C4CC=C5CC(N(C)C)CC[C@@]5(C)C4CC[C@@]32CN1C (some centres undefined)	inactive

----------
biological target: Rap guanine nucleotide exchange factor 3 (Homo sapiens) (UniProt O95398); experiment: Counterscreen qHTS for agonist of cAMP-regulated guanine nucleotide exchange factor 3 (EPAC1) (AID 1645889); conditions: EPAC1 Rap1B-BODIPY-GDP exchange, fluorescence; series mostly up to 154 µM; further: % of control where 0% means no effect; nearly all actives have a fitted effect of over 40% in size
Records with an inconclusive call do not appear. Calls of active or inactive are those of the source. The call rests on the fitted dose curve; in most records, active means well fitted activation curve with a large enough effect; inconclusive means small, poorly fitted or top-dose-only effect, or another doubt; inactive means no such curve, though single readings can be large or run the other way.
valueKind: activation

compound	experimentalSystem	valueKind	recordedMeasurement
COc1ccc(CNC(=O)c2cc(=O)c3cc(C)ccc3o2)cc1	Rap guanine nucleotide exchange factor 3 (Homo sapiens) (UniProt O95398)	activation	inactive
N#Cc1c(-c2ccccc2)nc(SCc2cccc(C(F)(F)F)c2)[nH]c1=O	Rap guanine nucleotide exchange factor 3 (Homo sapiens) (UniProt O95398)	activation	inactive
O=C(NCCCn1ccnc1)c1cc(-c2cccnc2)nc2ccc(Br)cc12	Rap guanine nucleotide exchange factor 3 (Homo sapiens) (UniProt O95398)	activation	inactive
COc1ccc(-c2c(-c3ccccc3OC)oc3ccccc23)cc1F	Rap guanine nucleotide exchange factor 3 (Homo sapiens) (UniProt O95398)	activation	inactive
COc1ccc2nc(N3CCN(C(=O)C4CC4)CC3)sc2c1	Rap guanine nucleotide exchange factor 3 (Homo sapiens) (UniProt O95398)	activation	inactive
COc1cccc(C(NC(C)=O)c2nc(-c3csc4ccccc34)cs2)c1 (stereo unspecified)	Rap guanine nucleotide exchange factor 3 (Homo sapiens) (UniProt O95398)	activation	29.4% [at 30.8 µM] (inactive)

----------
Each entry below carries its reported activation.
assay: qHTS Assay for Identification of Small Molecule Agonists for Hypoxia Response Element Signaling Pathway (AID 914); settings: ME-180 (cervical carcinoma) HRE-bla reporter, beta-lactamase ratio, CoCl2, 17 h; stronger effect = higher value; further: % of control where 0% means no effect
Results filed as inconclusive are left out. Activity calls are given as the source filed them. The call rests on the fitted dose curve; in most records, active means well fitted activation curve with a large enough effect in the signal ratio, with a control signal flat (not every such curve was filed as active); inconclusive means small, poorly fitted or top-dose-only effect, or effect the other way, or a change in a side signal; inactive means flat fitted curve, though single readings scatter; the % refers to the signal ratio.

molecule	activation
Cc1ncc([N+](=O)[O-])n1C[C@H](O)CCl	-4.65% (inactive)
CO/N=C(\C(=O)N[C@@H]1C(=O)N2C(C(=O)O)=C(COC(N)=O)CS[C@@H]12)c1ccco1	3.41% (inactive)
C[C@@H]1[C@H]2CC[C@@H]3[C@@H]4CC=C5C[C@@H](N(C)C)CC[C@]5(C)[C@@H]4CC[C@@]32CN1C	23.8% (inactive)
C[C@@H]1Cc2ccccc2N1NC(=O)c1ccc(Cl)c(S(N)=O)c1 (stereo not given in full)	7.68% (inactive)
COc1ccc2c(c1)N(C[C@@H](C)CN(C)C)c1ccccc1S2	-28.7% (inactive)
CS(=O)(=O)Nc1cccc(-c2nc(Nc3ccccc3)c3ccccc3n2)c1	6.74% (inactive)
C[C@@]12CCC(=O)C[C@@H]1CC(=O)[C@H]1[C@H]3CCC[C@]3(C)C(=O)C[C@@H]12 (tested in a mixture with another compound)	-12.7% (inactive)
CC(=O)S[C@H]1CC2=CC(=O)CC[C@@]2(C)[C@H]2CC[C@@]3(C)[C@H](CC[C@]34CCC(=O)O4)[C@@H]12	-20.6% (inactive)
CN1CCC2(CC1)CCN(C(=O)c1ccncc1)CC2	7.12% (inactive)
CC[C@H]1NC(=O)c2cc(S(N)(=O)=O)c(Cl)cc2N1	3.52% (inactive)
